src = paper PMC9172550

I'd appreciate it if you could supply inhibition at 12.5 µM values for the items below.
- subjectOfTest: egg albumin (Gallus gallus, UniProt P01012)
- Sequence (P01012 2-386): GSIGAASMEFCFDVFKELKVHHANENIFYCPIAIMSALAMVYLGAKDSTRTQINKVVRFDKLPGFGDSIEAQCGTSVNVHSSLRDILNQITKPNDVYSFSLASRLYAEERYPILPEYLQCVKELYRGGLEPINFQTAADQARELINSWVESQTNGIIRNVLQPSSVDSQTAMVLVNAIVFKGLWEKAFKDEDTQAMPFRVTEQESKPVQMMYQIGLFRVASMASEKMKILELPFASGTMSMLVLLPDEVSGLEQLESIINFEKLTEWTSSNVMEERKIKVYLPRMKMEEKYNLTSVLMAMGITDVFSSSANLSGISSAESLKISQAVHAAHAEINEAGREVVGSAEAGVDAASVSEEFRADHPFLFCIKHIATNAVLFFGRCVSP
- experiment: Albumin denaturation assay (in vitro anti-inflammatory activity)
- Parameters: species or system hen
- measurementContext: 12.5 μM; means ± SD, n = 3; read-out: percentage inhibition of albumin denaturation
Numbers only, in %.

QUERY: Recorded inhibition at 12.5 µM for C=CCc1ccc(OCC(=O)Nc2ccc(C)cc2)c(OC)c1 [Compound 1A] , please?
RESULT: 5.7

QUERY: What value of measured inhibition at 12.5 µM is listed for O=C(O)Cc1ccccc1Nc1c(Cl)cccc1Cl [Standard diclofenac, Diclofenac sodium, reference compound] ?
RESULT: 15.7

QUERY: State the recorded inhibition at 12.5 µM for this entry: C=CCc1ccc(OCC(=O)Nc2ccc(Cl)cc2)c(OC)c1 [Compound 1C]
RESULT: 9.14

QUERY: Given the compound C=CCc1ccc(OCC(=O)Nc2ccc(OC)cc2)c(OC)c1 [Compound 1B] , what is its reported inhibition at 12.5 µM?
RESULT: 4.57

Further cases:
QUERY: # query: inhibition at 12.5 µM of entry C=CCc1ccc(OCC(=O)Nc2cccc(C)c2)c(OC)c1 [Compound 1D]
RESULT: 7.88

###

- subjectOfTest: UniProt P01012
- experiment: Albumin denaturation assay (in vitro anti-inflammatory activity)
- Set-up: species or system hen
- measurementContext: 50 μM; means ± SD, n = 3; read-out: percentage inhibition of albumin denaturation
If the reported inhibition at 50 µM equals or exceeds 20%, assign class 1. If not, assign class 0.

QUERY: Would you say C=CCc1ccc(OCC(=O)Nc2cccc(C)c2)c(OC)c1 [Compound 1D] shows inhibition at 50 µM at minimum 20%?
RESULT: class 0

Continuing:
QUERY: Please check the record C=CCc1ccc(OCC(=O)Nc2ccc(C)cc2)c(OC)c1 [Compound 1A] and state if its inhibition at 50 µM is at or above 20%.
RESULT: class 0

###

- subjectOfTest: PPARγ LBD protein (Homo sapiens, UniProt P37231)
- Construct: 1 nM 6xHis-PPAR LBD protein
- Sequence (P37231 238-503 limits assumed): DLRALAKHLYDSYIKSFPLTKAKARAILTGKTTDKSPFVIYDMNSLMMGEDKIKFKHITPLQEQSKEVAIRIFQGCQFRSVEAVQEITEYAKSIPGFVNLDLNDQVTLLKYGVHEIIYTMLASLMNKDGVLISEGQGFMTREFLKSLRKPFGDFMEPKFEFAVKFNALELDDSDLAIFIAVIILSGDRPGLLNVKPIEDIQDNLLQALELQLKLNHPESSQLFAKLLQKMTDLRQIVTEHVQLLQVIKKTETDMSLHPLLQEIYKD
- experiment: LanthaScreen TR-FRET competitive ligand displacement (PPARγ protein binding) assay
- measurementContext: TR-FRET signal at 0.000256 µM
Would you kindly list Raw Data - Background (RLU) for each of these molecules?
Numbers only, in RLU.

// solved cases for Raw Data - Background (RLU) follow
QUERY: I'd like to know its Raw Data - Background (RLU). The molecule in question is `C=CCc1ccc(OCC(=O)Nc2cccc(C)c2)c(OC)c1`
RESULT: 1.72

QUERY: Item `C=CCc1ccc(OCC(=O)Nc2ccc(Cl)cc2)c(OC)c1` has what recorded Raw Data - Background (RLU)?
RESULT: 1.660

QUERY: So what's the measured Raw Data - Background (RLU) for this one? `C=CCc1ccc(OCC(=O)Nc2ccc(OC)cc2)c(OC)c1`
RESULT: 1.755

Let's switch to this molecule now.
QUERY: Sample `C=CCc1ccc(OCC(=O)Nc2ccc(C)cc2)c(OC)c1` — what was its Raw Data - Background (RLU)?
RESULT: 1.862

###

- subjectOfTest: PPARγ LBD protein (Homo sapiens, UniProt P37231)
- Construct: 1 nM 6xHis-PPAR LBD protein
- experiment: LanthaScreen TR-FRET competitive ligand displacement (PPARγ protein binding) assay
- measurementContext: TR-FRET signal at 4 µM
readoutLabel: Raw Data - Background (RLU)
Answers are plain numbers, in RLU.

// below: answered compounds
QUERY: Give PPARγ LBD protein (Homo sapiens, UniProt P37231) Raw Data - Background (RLU) for C=CCc1ccc(OCC(=O)Nc2ccc(Cl)cc2)c(OC)c1 [Compound 1C]
RESULT: 1.526

QUERY: Value wanted: Raw Data - Background (RLU) (PPARγ LBD protein (Homo sapiens, UniProt P37231)) of entry C=CCc1ccc(OCC(=O)Nc2ccc(C)cc2)c(OC)c1 [Compound 1A]
RESULT: 1.332

QUERY: What reported Raw Data - Background (RLU) corresponds to C=CCc1ccc(OCC(=O)Nc2ccc(OC)cc2)c(OC)c1 [Compound 1B] on PPARγ LBD protein (Homo sapiens, UniProt P37231)?
RESULT: 1.619

New cases:
QUERY: Which measured Raw Data - Background (RLU) belongs to C=CCc1ccc(OCC(=O)Nc2cccc(C)c2)c(OC)c1 [Compound 1D] , tested on PPARγ LBD protein (Homo sapiens, UniProt P37231)?
RESULT: 1.67
